Assay: Plasma clearance in Wistar rat at 3 mg/kg, iv and 10 mg/kg, po
Type: ADME, organism-based
Measured metric: clearance (mL/min/kg)
One number for each entry, in mL/min/kg.

Input: # return recorded clearance for input OC1CCN(c2cc(-c3cnc4ccc(N5CCC[C@@H]5c5cccc(F)c5)nn34)ccn2)CC1
Output: 45.2

----------
Assay: Volume of distribution at steady state in Wistar rat at 3 mg/kg, iv and 10 mg/kg, po
Assay type: ADME, organism-based
Conditions: in vivo, read-out: Vdss
Measured metric: Vd (L/kg)
Numbers only, in L/kg.

Input: # return recorded Vd for input OC1CCN(c2cc(-c3cnc4ccc(N5CCC[C@@H]5c5cccc(F)c5)nn34)ccn2)CC1
Output: 4.9
